These data points were gathered from patent US9562053B2.

Biological target: Human GPR120 short form (Homo sapiens)
Construct: expressed in transfected cells
Sequence (Q5NUL3 whole entry): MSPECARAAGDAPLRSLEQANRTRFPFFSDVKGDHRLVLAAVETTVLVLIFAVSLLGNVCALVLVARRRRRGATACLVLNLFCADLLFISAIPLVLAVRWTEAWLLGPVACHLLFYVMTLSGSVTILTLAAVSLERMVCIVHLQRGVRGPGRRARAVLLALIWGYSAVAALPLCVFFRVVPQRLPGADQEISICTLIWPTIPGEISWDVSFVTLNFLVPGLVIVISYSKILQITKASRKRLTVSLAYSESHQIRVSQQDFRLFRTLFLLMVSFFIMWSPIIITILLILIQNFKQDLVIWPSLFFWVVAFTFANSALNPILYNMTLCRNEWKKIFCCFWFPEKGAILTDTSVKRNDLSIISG
Assay: Human GPR120 in Calcium Flux Assay, Procedure Calcium B (4200 cells/well)
Type: cell-based
pEC50: −log10 of the molar value.
property_name: pEC50

smiles_text | property_name | value_reported
Cc1cc2cc(Cl)c(CCCS(C)(=O)=O)c(COc3ccc(CCC(=O)O)c(C)c3C)c2o1 | pEC50 | 5.56
Cc1c(CCC(=O)O)ccc(OCc2cc(Cl)cc3sc(CC(C)C)nc23)c1C | pEC50 | 6.02
CCc1nc2c(COc3ccc(CCC(=O)O)c(C)c3C)cc(F)cc2s1 | pEC50 | 7.04
Cc1c(CCC(=O)O)ccc(OCc2cc(Cl)cc3sc(C(C)(C)C)nc23)c1C | pEC50 | 6.30
